Molecular target: T1, recombinant human IP-10 (human, UniProt P02778 22-98)
T1 sequence: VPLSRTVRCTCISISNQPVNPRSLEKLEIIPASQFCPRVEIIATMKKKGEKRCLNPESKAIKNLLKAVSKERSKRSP
Test: cell-based or functional assay
VALUE_TYPE: inhibition of chemotaxis (IC50%) on recombinant IP-10, donor 1012 (mg/L)

binder="humanized monoclonal antibody HuAIP12 (antibody, human IgG1, V domains shown, Human IgG1/kappa; also called unmodified HuAIP12; Wild Type) VH: EVQLVQSGAEVKKPGATVKISCKVSGYTFTDYSMHWVRQAPGKGLKWMGWINTETGEPTYADDFKGRFTFTLDTSTSTAYMELSSLRSEDTAVYYCARNYDYDGYFDVWGQGTTVTVSS VL: DIQMTQSPSSLSASVGDRVTITCKASQDINKYIAWYQQKPGKAPKLLIHYTSTLQPGIPSRFSGSGSGRDYTFTISSLQPEDIATYYCLQYDNLLFTFGQGTKLEIK" value_observed=0.073
binder="murine monoclonal antibody AIP12 (antibody, V domains shown, Mouse hybridoma antibody; also called MuAIP12) VH: QIQLVQSGPELKKPGETVKISCKASGYTFTDYSMHWVKQAPGKGLKWMGWINTETGEPTYADDFKGRFAFSLETSASTAYLQINNLKNEDTATYFCARNYDYDGYFDVWGAGTTVTVSS VL: DIQMTQSPSSLSASLGGKVTITCKASQDINKYIAWYQHKPGKGPRLLIHYTSTLQPGIPSRFSGSGSGRDYSFSISNLEPEDIATYYCLQYDNLLFTFGSGTKLEIK" value_observed=0.091
binder="humanized monoclonal antibody HuAIP13 (antibody, human IgG1, V domains shown, Human IgG1/kappa) VH: EVQLVQSGAEVKKPGATVKISCKVSGYTFTDYSMHWVRQAPGKGLKWMGWINTEIGEPTYADDFKGRFTFTLDTSTSTAYMELSSLRSEDTAVYYCARNYDYDAYFDVWGQGTTVTVSS VL: DIQMTQSPSSLSASVGDRVTITCKADQDINKYIAWYQQKPGKAPKLLLHHTSTLQPGIPSRFSGSGSGRDYTFTISSLQPEDIATYYCLQYDSLLFTFGQGTKLEIK" value_observed=0.077
binder="murine monoclonal antibody AIP13 (antibody, V domains shown, Mouse hybridoma antibody; Mouse IgG1/kappa was used as its isotype control; also called MuAIP13) VH: QIQLVQSGPELKKPGETVKISCKASGYTFTDYSMHWVKQAPGKGLKWMGWINTEIGEPTYADDFKGRFAFSLETSASTAYLQINNLKNEDTATYFCARNYDYDAYFDVWGAGTTVTVSS VL: DIQMTQSPSSLSASLGGKVTITCKADQDINKYIAWYQHKPGRGPRLLLHHTSTLQPGIPSRFSGSGSGRDYSFSISNLEPADIATYYCLQYDSLLFTFGSGTKLEIK" value_observed=0.084
